B1: glmS ribozyme (parent)
chain: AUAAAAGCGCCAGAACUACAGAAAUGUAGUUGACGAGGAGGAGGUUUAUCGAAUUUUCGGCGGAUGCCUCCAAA

Variants of: B1
Assay: self-cleavage kobs at 160 uM GlcN6P; higher = faster cleavage; RNA array
Conditions: with glucosamine-6-phosphate
This sample holds only a part of the variants without activity.
Overview of reported self-cleavage kobs at 160 uM GlcN6P across a group of variants:
attributeMeasured: self-cleavage kobs at 160 uM GlcN6P

[
  {
    "mutationLabel": "G40A U57A",
    "attributeMeasured": "self-cleavage kobs at 160 uM GlcN6P",
    "result": "< 1e-05 s⁻¹"
  },
  {
    "mutationLabel": "G41U G66U",
    "attributeMeasured": "self-cleavage kobs at 160 uM GlcN6P",
    "result": "< 1e-05 s⁻¹"
  },
  {
    "mutationLabel": "U31A G66A",
    "attributeMeasured": "self-cleavage kobs at 160 uM GlcN6P",
    "result": "0.000259 s⁻¹"
  },
  {
    "mutationLabel": "G9A U49A",
    "attributeMeasured": "self-cleavage kobs at 160 uM GlcN6P",
    "result": "< 1e-05 s⁻¹"
  },
  {
    "mutationLabel": "G9A A42G G44C U56G U65G",
    "attributeMeasured": "self-cleavage kobs at 160 uM GlcN6P",
    "result": "< 1e-05 s⁻¹"
  },
  {
    "mutationLabel": "A6G A12U A36C G43C",
    "attributeMeasured": "self-cleavage kobs at 160 uM GlcN6P",
    "result": "< 1e-05 s⁻¹"
  },
  {
    "mutationLabel": "G13A G41C C67U",
    "attributeMeasured": "self-cleavage kobs at 160 uM GlcN6P",
    "result": "< 1e-05 s⁻¹"
  },
  {
    "mutationLabel": "C16G G41U U54A",
    "attributeMeasured": "self-cleavage kobs at 160 uM GlcN6P",
    "result": "< 1e-05 s⁻¹"
  },
  {
    "mutationLabel": "A42U U65G C68A",
    "attributeMeasured": "self-cleavage kobs at 160 uM GlcN6P",
    "result": "< 1e-05 s⁻¹"
  },
  {
    "mutationLabel": "U54A C67G",
    "attributeMeasured": "self-cleavage kobs at 160 uM GlcN6P",
    "result": "0.000213 s⁻¹"
  },
  {
    "mutationLabel": "U30G G40C",
    "attributeMeasured": "self-cleavage kobs at 160 uM GlcN6P",
    "result": "0.000103 s⁻¹"
  },
  {
    "mutationLabel": "G29U A48C G59A",
    "attributeMeasured": "self-cleavage kobs at 160 uM GlcN6P",
    "result": "< 1e-05 s⁻¹"
  },
  {
    "mutationLabel": "C16U U31A",
    "attributeMeasured": "self-cleavage kobs at 160 uM GlcN6P",
    "result": "0.000862 s⁻¹"
  },
  {
    "mutationLabel": "C8U G63U",
    "attributeMeasured": "self-cleavage kobs at 160 uM GlcN6P",
    "result": "< 1e-05 s⁻¹"
  },
  {
    "mutationLabel": "U30G G41C G60A",
    "attributeMeasured": "self-cleavage kobs at 160 uM GlcN6P",
    "result": "< 1e-05 s⁻¹"
  },
  {
    "mutationLabel": "G9A A52U C70U",
    "attributeMeasured": "self-cleavage kobs at 160 uM GlcN6P",
    "result": "< 1e-05 s⁻¹"
  },
  {
    "mutationLabel": "A15U C50G",
    "attributeMeasured": "self-cleavage kobs at 160 uM GlcN6P",
    "result": "8.86e-05 s⁻¹"
  },
  {
    "mutationLabel": "C50G U55G",
    "attributeMeasured": "self-cleavage kobs at 160 uM GlcN6P",
    "result": "7.28e-05 s⁻¹"
  },
  {
    "mutationLabel": "G35U A39G",
    "attributeMeasured": "self-cleavage kobs at 160 uM GlcN6P",
    "result": "< 1e-05 s⁻¹"
  },
  {
    "mutationLabel": "G40C A53C",
    "attributeMeasured": "self-cleavage kobs at 160 uM GlcN6P",
    "result": "5.46e-05 s⁻¹"
  },
  {
    "mutationLabel": "A12G",
    "attributeMeasured": "self-cleavage kobs at 160 uM GlcN6P",
    "result": "5.14e-05 s⁻¹"
  },
  {
    "mutationLabel": "A12C A14U G44U U45A",
    "attributeMeasured": "self-cleavage kobs at 160 uM GlcN6P",
    "result": "< 1e-05 s⁻¹"
  }
]
